Read-out: succinate dehydrogenase complex iron sulfur subunit B (SDHB), SDHB (gene 6390)
Procedure summary: LTEA_HepaRG_SDHB: Life Technologies and Expression Analysis (LTEA) Assay for succinate dehydrogenase complex iron sulfur subunit B (SDHB) using HepaRG (AID 2283528)
Run conditions: mRNA level, 48 h; actives raise or lower the signal
Active and inactive are the calls of the source. The calls were made as follows: active = hit-call score of the fitted dose curve at least 0.9, where 1 is the maximum; inactive = score below 0.9.
Outcome codes: y for active, n for inactive

>  <Compound>
O=C1NS(=O)(=O)c2ccccc21

>  <Discrete label>
n

$$$$
>  <Compound>
Cc1[nH]nc2c1N=C(c1ccccc1Cl)c1cc([N+](=O)[O-])ccc1N2

>  <Discrete label>
y

$$$$
>  <Compound>
CCCCC(CC)C(=O)O (configuration not stated)

>  <Discrete label>
n

$$$$
>  <Compound>
CS(=O)(=O)c1ccc([C@@H](CC2CCCC2)C(=O)Nc2cnccn2)cc1Cl

>  <Discrete label>
n

$$$$
>  <Compound>
O=C(c1ccccc1)c1ccccc1

>  <Discrete label>
n

$$$$
>  <Compound>
N=C(N)c1ccc(OCCCCCOc2ccc(C(=N)N)cc2)cc1

>  <Discrete label>
y

$$$$
>  <Compound>
CC(=O)Nc1ccc(O)cc1

>  <Discrete label>
n

$$$$
>  <Compound>
CCCCCCCCCCCCCCC

>  <Discrete label>
n

$$$$
>  <Compound>
CCCCC=O

>  <Discrete label>
n

$$$$
>  <Compound>
O=C(CCCN1CCC(O)(c2ccc(Cl)cc2)CC1)c1ccc(F)cc1

>  <Discrete label>
n

$$$$
>  <Compound>
CN(C)CCOC(c1ccccc1)c1ccccc1

>  <Discrete label>
n

$$$$
>  <Compound>
CCC(C)c1ccccc1O (configuration not stated)

>  <Discrete label>
n

$$$$
